study system: mammalian tyrosinase (Mus musculus, UniProt P11344)
Construct: Cellular lysates of Mel-Ab cells may be used as tyrosinase enzyme preparations; endogenous in cells; host or cells: Mel-Ab mouse melanocytes (cell lysate)
Sequence (P11344 19-533): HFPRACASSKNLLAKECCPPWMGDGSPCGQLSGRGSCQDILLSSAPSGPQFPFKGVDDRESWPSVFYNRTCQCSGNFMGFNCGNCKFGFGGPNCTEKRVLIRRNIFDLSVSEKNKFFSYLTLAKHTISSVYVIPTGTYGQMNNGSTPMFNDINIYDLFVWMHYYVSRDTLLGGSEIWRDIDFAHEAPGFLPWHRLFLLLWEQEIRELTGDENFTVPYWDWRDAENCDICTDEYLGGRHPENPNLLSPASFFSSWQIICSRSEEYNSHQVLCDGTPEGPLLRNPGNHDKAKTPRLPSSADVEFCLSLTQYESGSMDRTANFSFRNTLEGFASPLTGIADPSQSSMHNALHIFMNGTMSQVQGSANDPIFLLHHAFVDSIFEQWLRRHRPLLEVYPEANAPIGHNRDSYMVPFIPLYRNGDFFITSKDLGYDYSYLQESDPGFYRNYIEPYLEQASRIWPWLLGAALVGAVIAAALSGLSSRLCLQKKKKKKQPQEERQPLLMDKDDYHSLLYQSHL
test summary: cell-free mammalian tyrosinase enzyme assay
Format: biochemical
experimental conditions: cell-free enzyme extract; read-out: E: concentration of compound that produces 50% inhibition in the cell-free mammalian tyrosinase enzyme assay
From the text: In the present invention, one or more of three in vitro bioassays can be utilized to evaluate the efficacy and toxicity of candidate skin-lightening compounds. The three bioassays characterize the compounds with regard to mammalian tyrosinase enzyme inhibition (cell free), pigmentation in cultured melanocyte cells, and cytotoxicity of mammalian cultured cells. […] Inhibition [μM] as measured in three assays. […]
Could you mark each record Met if its IC50 falls strictly under 900 nM, and Not met if it equals or exceeds it?

compound: CCCCOc1ccc(C(=O)NO)cc1 [ID-477, 4-Butoxybenzohydroxamic acid]
label class: Not met
//
compound: Nc1ccccc1C(=O)NO [ID-318, 2-Aminobenzohydroxamic acid]
label class: Not met
//
compound: O=C(NO)c1ccccc1 [ID-357, Benzohydroxamic acid]
label class: Met
//
compound: COc1ccc(C(=O)NO)cc1 [ID-480, 4-Methoxybenzohydroxamic acid]
label class: Not met
//
compound: Cc1ccc(C(=O)NO)cc1 [ID-497, 4-Methylbenzohydroxamic acid]
label class: Met
//
compound: COc1ccccc1C(=O)NO [ID-483, 2-Methoxybenzohydroxamic acid]
label class: Not met
//
compound: Cc1cccc(C(=O)NO)c1 [ID-481, 3-Methylbenzohydroxamic acid]
label class: Met
//
compound: CC(=O)Nc1ccccc1C(=O)NO [ID-484, 2-Acetamidobenzohydroxamic acid]
label class: Not met
//
compound: O=C(NO)c1ccncc1
label class: Not met
//
compound: O=C(NO)c1cccc(Oc2ccccc2)c1 [ID-500, 3-Phenoxybenzohydroxamic acid]
label class: Met
//
compound: COc1ccc(C(=O)NO)cc1OC [ID-456, 3,4-Dimethoxybenzohydroxamic acid]
label class: Not met
//
compound: Nc1ccc(C(=O)NO)cc1 [ID-476, 4-Aminobenzohydroxamic acid]
label class: Met
